# Target entity: human GLP-1 receptor (human, UniProt P43220 24-463)
# Experimental details: cell-based or functional assay
Ends that are not written are not given here.
Measured parameter: cAMP EC50 (pM)
Give bare numbers, in pM.

IP236 (Fc fusion, cysteine pairing not given here; also: fused to IgG1-TM Fc) YSEGTFTSDYSKLLEEEAVRLFIEWLVKGPGGGGGSGGGGSGGGGSATHTCPPCPAPEF: 150

Next binder, please.
// cAMP EC50 lookup, key: IP206 (Fc fusion) HGEGTFTSDVSSYMEAQSIREFIAWLVKGPAPPGGSGSTASSGSGSATGGGGAATHTCPPCPAPEF
84
